The measurements presented in this section are drawn from paper PMC5540273.

system: PRKCI; details: concentration: 1 μM, replicates: in singlicate; n = 1;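 further: KINOMEscan kinase panel screen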
// assign condition met if %Inh falls strictly below 7%, else condition not met (ties count as condition not met)

{"Molecule": "O=C(NOCC1CC1)c1ccc(F)c(F)c1Nc1ccc(I)cc1Cl", "Group": "condition met"}
{"Molecule": "COc1cc2ncn(-c3cc(OCc4sccc4Cl)c(C(N)=O)s3)c2cc1OC", "Group": "condition not met"}
{"Molecule": "Fc1ccc(-c2nn3c(OCC(F)(F)F)cccc3c2-c2ccncc2)cc1", "Group": "condition not met"}
{"Molecule": "Cc1ccc(NC(=O)c2ccnc(N3CCN(C)CC3)c2)cc1-c1ccc(C(=O)NCC2CC2)cc1", "Group": "condition met"}
{"Molecule": "CN(C1=C(c2ccccc2)C(=O)NC1=O)c1ccccc1", "Group": "condition not met"}
{"Molecule": "O=C(Nc1cccc(-c2nn3ncccc3c2-c2ccnc(Nc3cccc(C(F)(F)F)c3)n2)c1)c1c(F)cccc1F", "Group": "condition not met"}
{"Molecule": "COc1cc2c(cc1OC[C@@H](O)CO)ncc1c3ccc(C#N)cc3[nH]c21", "Group": "condition met"}
{"Molecule": "c1ccc(-c2cc(-c3c[nH]nc3-c3ccccn3)ccn2)cc1", "Group": "condition not met"}
{"Molecule": "Cc1nnc(-c2ccc(C)c(-c3ccc(C(=O)Nc4ccc(NS(C)(=O)=O)cc4)cc3)c2)o1", "Group": "condition not met"}
{"Molecule": "Cc1ccc(C(=O)NCC(N)=O)cc1-n1c(C)cc(OCc2ccc(F)cc2F)c(Br)c1=O", "Group": "condition not met"}
{"Molecule": "COc1ccc(Nc2ncc(C#N)c(Nc3ccccc3C(N)=O)n2)cc1N1CCN(C)CC1.Cl", "Group": "condition not met"}
{"Molecule": "Cc1cn2c(=O)cc(N3CCOCC3)nc2n1Cc1cccc(Cl)c1Cl", "Group": "condition not met"}
{"Molecule": "Cc1c2ccc(N(C)c3ccnc(Nc4cccc(S(N)(=O)=O)c4)n3)cc2nn1Cc1ccccc1.Cl.Cl", "Group": "condition met"}
{"Molecule": "COc1ccc(COc2cc(-n3cnc4ccccc43)sc2C(N)=O)cc1", "Group": "condition met"}
{"Molecule": "CC(=O)Nc1ccc(COc2ccc(Nc3ccnc4cc(-c5ccccn5)ccc34)cc2)cc1.Cl", "Group": "condition not met"}
{"Molecule": "O=c1cc(N2CCOCC2)nc2n(Cc3cccc(Cl)c3Cl)c(C3CC3)nn12", "Group": "condition met"}
{"Molecule": "O=C(NCCNc1ccnc(Nc2ccc(F)cc2)n1)c1cc2ccccc2s1", "Group": "condition met"}
{"Molecule": "O=C(NCCCN1CCOCC1)c1cccc(Nc2nccc(Nc3ccc(Oc4ccccc4)cc3)n2)c1", "Group": "condition not met"}
{"Molecule": "COc1ccc(CNC(=O)NC2CCN(c3ccnc(Nc4ccc(OC)cc4)n3)C2)cc1 (centres unmarked)", "Group": "condition not met"}
{"Molecule": "Cc1cccc(-c2nc(Nc3ccc4ncsc4c3)c3ccccc3n2)n1", "Group": "condition not met"}
{"Molecule": "CN1c2ccc(NCc3ccc(F)cc3)cc2-c2c(cnn2C)S1(=O)=O", "Group": "condition not met"}
{"Molecule": "O=C1Cc2cc(Nc3nc(NCc4cccc(S(=O)(=O)C(F)(F)F)c4)ncc3C(F)(F)F)ccc2N1", "Group": "condition met"}
{"Molecule": "O=C(c1ccc(-c2cc(-c3c[nH]nc3-c3ccccn3)ccn2)cc1)N1CCOCC1", "Group": "condition not met"}
{"Molecule": "C[C@@H](Oc1cc(-n2cnc3ccc(NC(=O)NC(C)(C)C)cc32)sc1C(N)=O)c1ccccc1Cl", "Group": "condition met"}
{"Molecule": "Nc1nccc(-c2c(-c3ccc(F)cc3)ncn2C2CCN(CC(F)(F)F)CC2)n1", "Group": "condition not met"}
{"Molecule": "[2H]C([2H])(c1cccc(C(F)(F)F)c1C)n1ccn2c(=O)nc(N3CCOCC3)cc12", "Group": "condition not met"}
{"Molecule": "O=C(NCCNc1ccnc(Nc2ccc(F)cc2)n1)Nc1ccccc1F", "Group": "condition not met"}
{"Molecule": "CCc1nc(-c2cccc(C)c2)c(-c2ccnc(NCc3ccccc3)c2)s1", "Group": "condition met"}
{"Molecule": "CSc1ccc(-c2cc3ncnc(SCC(=O)O)c3s2)cc1", "Group": "condition met"}
{"Molecule": "Cc1c(Cn2c(C)nn3c(=O)cc(N4CCOC(C)C4)nc23)cccc1C(F)(F)F (centres unmarked)", "Group": "condition met"}
{"Molecule": "CCc1ccnc(/C=C/c2n[nH]c3cc(Sc4ccccc4C(=O)NC)ccc23)c1", "Group": "condition met"}
{"Molecule": "CC(C)(C)n1cnc2c(N)ncnc21", "Group": "condition met"}
{"Molecule": "COCCNC(=O)c1ccc(-c2cc(C(=O)NC3CC3)cc(F)c2C)cc1", "Group": "condition not met"}
{"Molecule": "NS(=O)(=O)c1cccc(-c2ccc3ncc(N4CCOCC4)nc3c2)c1", "Group": "condition not met"}
{"Molecule": "CCn1cnc2c(N)ncnc21", "Group": "condition not met"}
{"Molecule": "Cc1nnc(-c2ccc3ncc(-c4ccc(S(C)=O)cc4)n3c2)o1 (centres unmarked)", "Group": "condition met"}
